Attribute: pIC50
# study.target: human IL-17A (Homo sapiens, UniProt Q16552)
# Sequence (Q16552 24-155): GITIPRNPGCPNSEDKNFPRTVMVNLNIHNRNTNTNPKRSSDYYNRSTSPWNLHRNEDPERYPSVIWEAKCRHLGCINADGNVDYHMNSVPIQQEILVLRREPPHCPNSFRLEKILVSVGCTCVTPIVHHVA
# assay: IL-17A enzyme-linked immunosorbent assay (competitive ELISA, IL-17A/IL-17R binding)
A value of pIC50 is the negative decimal logarithm of a concentration given in moles per litre.

Here is how some compounds turned out for pIC50.
CCn1nccc1C(=O)N[C@H](C(=O)Nc1cnc(-c2c(C)n[nH]c2C)c(F)c1)C(C1CC1)C1CC1 [Compound 52] | 7.01
Cn1nccc1C(=O)N[C@H](C(=O)Nc1ccc2c(c1)NC(=O)C21CCOCC1)C(C1CCC1)C1(C)CC1 (stereo partly drawn) [Compound 23] | 7.37
Cc1nonc1C(=O)N[C@H](C(=O)Nc1cnc(-c2c(C)n[nH]c2C)c(F)c1)C(C1CC1)C1(C)CC1 (stereo partly drawn) [Compound 59] | 7.06
Cc1n[nH]c(C)c1-c1ccc(NC(=O)[C@@H](NC(=O)c2ccnn2C(C)C)C(C2CC2)C2(C)CC2)cn1 (stereo partly drawn) [Compound 56] | 7.46
Cc1nonc1C(=O)N[C@H](C(=O)Nc1ccc(-c2c(C)n[nH]c2C)nc1)C(C1CC1)C1CC1 [Compound 41] | 5.94

Problem: Item Cc1n[nH]c(C)c1-c1ccc(NC(=O)[C@@H](NC(=O)c2nonc2C(C)C)C(C2CC2)C2CC2)cn1 [Compound 48] with human IL-17A (Homo sapiens, UniProt Q16552) - pIC50?
Solution: 6.80

Problem: Lookup: pIC50 / human IL-17A (Homo sapiens, UniProt Q16552) / Cc1n[nH]c(C)c1-c1ccc(NC(=O)[C@@H](NC(=O)c2ccnn2C)C(C2CC2)C2CC2)cn1 [Compound 38]
Solution: 6.41

Problem: pIC50 of CCn1nccc1C(=O)N[C@H](C(=O)Nc1ccc(-c2c(C)n[nH]c2C)nc1)C(C1CC1)C1(C)CC1 (stereo partly drawn) [Compound 54] on human IL-17A (Homo sapiens, UniProt Q16552)?
Solution: 7.33

Problem: Hi! What's the reported pIC50 for C[C@@H]1COCCN1c1ccc(NC(=O)[C@@H](NC(=O)c2ccnn2C)C(C2CCC2)C2(C)CC2)cn1 (stereo partly drawn) [Compound 10] on human IL-17A (Homo sapiens, UniProt Q16552)?
Solution: 7.39

Recorded values, source patent US12637430B2.
